# Tested target: UniProt P21980
# Sequence (P21980 whole entry): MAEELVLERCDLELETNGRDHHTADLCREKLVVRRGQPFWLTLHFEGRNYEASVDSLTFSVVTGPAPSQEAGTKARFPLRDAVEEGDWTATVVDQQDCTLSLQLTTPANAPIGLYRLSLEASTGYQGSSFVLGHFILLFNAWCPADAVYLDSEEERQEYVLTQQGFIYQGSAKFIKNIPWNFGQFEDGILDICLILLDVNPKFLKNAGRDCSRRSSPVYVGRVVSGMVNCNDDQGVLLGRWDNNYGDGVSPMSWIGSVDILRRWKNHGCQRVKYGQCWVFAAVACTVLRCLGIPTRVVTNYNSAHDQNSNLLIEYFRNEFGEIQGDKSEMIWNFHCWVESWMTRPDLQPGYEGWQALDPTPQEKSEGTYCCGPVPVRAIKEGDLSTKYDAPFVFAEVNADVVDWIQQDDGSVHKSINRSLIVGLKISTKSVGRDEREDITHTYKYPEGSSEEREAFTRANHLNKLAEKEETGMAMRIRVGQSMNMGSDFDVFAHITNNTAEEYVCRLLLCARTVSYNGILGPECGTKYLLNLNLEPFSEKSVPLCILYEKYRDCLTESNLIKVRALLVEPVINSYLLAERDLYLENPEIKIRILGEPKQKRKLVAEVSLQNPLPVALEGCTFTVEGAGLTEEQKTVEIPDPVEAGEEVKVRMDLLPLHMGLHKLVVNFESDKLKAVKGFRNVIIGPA
# Test protocol: Ratio of IC50 to human TG2 in HEK cells to IC50 for human recombinant TG2
# Assay type: cell-based
# Protocol conditions: HEK293
Readout label: Ratio IC50

| Molecule smiles | Obs value |
| --- | --- |
| C=CC(=O)Nc1ccc(S(=O)(=O)N2CCN(C(=O)C34CC5CC(CC(C5)C3)C4)CC2)cc1 | 77 |
| C=CC(=O)Nc1ccc(S(=O)(=O)N2CCCN(C(=O)OCc3ccccc3)CC2)cc1 | 7 |
| C=CC(=O)Nc1ccc(S(=O)(=O)N2CCN(c3ncccc3C)CC2)cc1 | 40 |
| C=CC(=O)Nc1ccc(S(=O)(=O)N2CCCC2)cc1 | 11 |
| C=CC(=O)Nc1ccc(S(=O)(=O)N2CCN(C(=O)OCc3cc(F)cc(F)c3)CC2)cc1 | 43 |
| C=CC(=O)Nc1ccc(S(=O)(=O)N2CCN(C(=O)N3CCC(F)(F)CC3)CC2)cc1 | 20 |
